TESTED ON: Fibroblast growth factor receptor 1 (Homo sapiens) (UniProt P11362)
Sequence (P11362 22-822 limits assumed): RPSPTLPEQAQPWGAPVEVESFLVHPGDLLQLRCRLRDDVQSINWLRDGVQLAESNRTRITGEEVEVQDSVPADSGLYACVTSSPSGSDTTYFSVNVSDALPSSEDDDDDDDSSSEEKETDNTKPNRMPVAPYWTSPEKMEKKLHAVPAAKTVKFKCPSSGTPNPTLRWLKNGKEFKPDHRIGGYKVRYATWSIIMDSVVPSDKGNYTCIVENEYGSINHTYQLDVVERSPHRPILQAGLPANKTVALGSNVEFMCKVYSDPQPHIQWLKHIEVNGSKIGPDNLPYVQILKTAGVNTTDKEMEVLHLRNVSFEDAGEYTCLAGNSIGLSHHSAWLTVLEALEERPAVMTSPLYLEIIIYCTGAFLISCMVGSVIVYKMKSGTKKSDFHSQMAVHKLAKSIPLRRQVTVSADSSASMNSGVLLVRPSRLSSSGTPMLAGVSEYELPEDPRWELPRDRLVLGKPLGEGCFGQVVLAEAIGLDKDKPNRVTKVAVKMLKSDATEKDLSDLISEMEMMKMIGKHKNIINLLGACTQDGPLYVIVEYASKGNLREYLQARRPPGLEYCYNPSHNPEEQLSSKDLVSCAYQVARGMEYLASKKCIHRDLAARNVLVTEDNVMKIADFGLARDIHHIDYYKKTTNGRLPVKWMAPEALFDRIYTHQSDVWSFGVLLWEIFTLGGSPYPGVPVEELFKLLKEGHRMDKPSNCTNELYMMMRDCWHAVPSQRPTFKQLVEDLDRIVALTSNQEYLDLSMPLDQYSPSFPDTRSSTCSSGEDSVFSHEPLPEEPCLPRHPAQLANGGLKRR
ASSAY METHOD TEXT: Binding affinity to wild-type human partial length FGFR1 (P357 to V669 residues) expressed in bacterial expression system assessed as fraction of unbound kinase to substrate at 0.1 uM after 1 hr by KinomeScan assay
MEASUREMENT NAME: Activity (%)
Enter your answer as a number in %; do not include the unit.

Task item: May I ask what Activity has been recorded for O=C(Nc1ccc(Oc2ccnc3[nH]cnc23)c(F)c1)c1cccn(-c2ccc(F)cc2)c1=O ?
Reply: 1

Task item: Can you handle CC(C)c1nc2c(Oc3ccc(NC(=O)c4cccn(-c5ccc(F)cc5)c4=O)cc3F)ccnc2[nH]1 next?
Reply: 7

Task item: Can you handle Cc1cnc2[nH]cnc2c1Oc1ccc(NC(=O)c2cccn(-c3ccc(F)cc3)c2=O)cc1F next?
Reply: 8

Task item: Can you handle O=C(Nc1ccc(Oc2c(Br)cnc3[nH]cnc23)c(F)c1)c1cccn(-c2ccc(F)cc2)c1=O next?
Reply: 7
